experiment: Antioxidant activity assessed as trolox equivalent of AAPH radical scavenging activity at 10 uM after 2 mins by ORAC-RCoo assay; format: physicochemical
ASSAY_ENDPOINT: Activity (µM)

Sample records with Activity:
[[record]]
input_smiles = "COc1cc(C[C@@H](O)CO)ccc1O[C@@H]1O[C@H](CO)[C@@H](O)[C@H](O)[C@H]1O"
readout_number = 2.88

[[record]]
input_smiles = "OC[C@H]1O[C@@H](OCc2ccccc2)[C@H](O)[C@@H](O)[C@@H]1O"
readout_number = 1.83


A = C=CCc1ccc(O[C@@H]2O[C@H](CO)[C@@H](O)[C@H](O)[C@H]2O)c(O[C@@H]2O[C@H](CO)[C@@H](O)[C@H](O)[C@H]2O)c1
B = CCCCO[C@@H]1O[C@H](CO)[C@@H](O)[C@H](O)[C@H]1O
C = CC1=CC(=O)CC(C)(C)[C@@]1(O)CC[C@@H](C)O[C@@H]1O[C@H](CO)[C@@H](O)[C@H](O)[C@H]1O
Order the records by Activity, with each subsequent value no larger than the one before. Write the labels in rank order as requested. B, A, C

* * *

assay: Antioxidant activity assessed as trolox equivalent of AAPH radical scavenging activity at 1 uM after 2 mins by ORAC-RCoo assay; assay type: physicochemical
ASSAY_ENDPOINT: Activity (µM)

Sample records with Activity:
[[record]]
molecule = "CC1=CC(=O)CC(C)(C)[C@@]1(O)CC[C@@H](C)O[C@@H]1O[C@H](CO)[C@@H](O)[C@H](O)[C@H]1O"
readout_number = 0.12

[[record]]
molecule = "CC(C)O[C@@H]1O[C@H](CO)[C@@H](O)[C@H](O)[C@H]1O"
readout_number = 0.22

[[record]]
molecule = "OC[C@H]1O[C@@H](OCc2ccccc2)[C@H](O)[C@@H](O)[C@@H]1O"
readout_number = 0.18

[[record]]
molecule = "COc1cc(C[C@@H](O)CO)ccc1O[C@@H]1O[C@H](CO)[C@@H](O)[C@H](O)[C@H]1O"
readout_number = 0.55

[[record]]
molecule = "COc1cc(O[C@@H]2O[C@H](CO)[C@@H](O)[C@H](O)[C@H]2O)ccc1O [TACHIOSIDE]"
readout_number = 0.21

[[record]]
molecule = "CCCCC[C@H](C)O[C@@H]1O[C@H](CO[C@@H]2OC[C@@H](O)[C@H](O)[C@H]2O)[C@@H](O)[C@H](O)[C@H]1O"
readout_number = 0.48

[[record]]
molecule = "CCCCC[C@H](C)O[C@@H]1O[C@H](CO[C@@H]2OC[C@](O)(CO)[C@H]2O)[C@@H](O)[C@H](O)[C@H]1O"
readout_number = 1.04

[[record]]
molecule = "COc1cc(C[C@@H](O)CO)ccc1O"
readout_number = 3.59

[[record]]
molecule = "CC(C)O[C@@H]1O[C@H](CO[C@@H]2OC[C@@H](O)[C@H](O)[C@H]2O)[C@@H](O)[C@H](O)[C@H]1O"
readout_number = 0.31

[[record]]
molecule = "C=CCc1ccc(O)c(O)c1 [HYDROXYCHAVICOL]"
readout_number = 2.55


a = C=CCc1ccc(O[C@@H]2O[C@H](CO)[C@@H](O)[C@H](O)[C@H]2O)c(O[C@@H]2O[C@H](CO)[C@@H](O)[C@H](O)[C@H]2O)c1
b = CCCCO[C@@H]1O[C@H](CO)[C@@H](O)[C@H](O)[C@H]1O
Lab log: flag the item ( a or b ) with the smaller Activity figure. Identify your pick by its label. a
(a: 0.17 µM, b: 0.62 µM)
